tested on: 4T1; test: Cytotoxicity against mouse 4T1 cells assessed as inhibition of cell proliferation incubated for 72 hrs by MTT assay; format: functional, cell-based; details: 4T1, 72 h
pIC50: −log10 of the molar value.

[
  {
    "substance-smiles": "O=C(Cc1cc(=O)oc2cc(O)ccc12)NCCCCCCCCNc1c2c(nc3ccccc13)CCCC2",
    "pIC50": 5.15
  },
  {
    "substance-smiles": "O=C(Cc1cc(=O)oc2cc(O)ccc12)NCCCCCCCCCNc1c2c(nc3ccccc13)CCCC2",
    "pIC50": 5.24
  }
]

====

tested on: HepG2; experiment: Cytotoxicity against human HepG2 cells assessed as growth inhibition measured after 48 hrs by MTT assay; assay type: functional, cell-based; conditions: HepG2, 48 h
value-type: IC50 (µM)

[
  {
    "substance-smiles": "CCCCOc1ccc2cc(C(=O)NNC(=O)c3c(C)oc4nc(N(CCC)CCC)n(-c5ccc(C)cc5)c(=O)c34)c(=O)oc2c1",
    "value-type": "IC50",
    "endpoint-value": 4.87
  }
]

====

molecular target: ALK tyrosine kinase receptor (Homo sapiens, UniProt Q9UM73, G1269A); assay: Inhibition of ALK G1269A mutant (unknown origin)
Sequence (Q9UM73 19-1620 G1269A limits assumed): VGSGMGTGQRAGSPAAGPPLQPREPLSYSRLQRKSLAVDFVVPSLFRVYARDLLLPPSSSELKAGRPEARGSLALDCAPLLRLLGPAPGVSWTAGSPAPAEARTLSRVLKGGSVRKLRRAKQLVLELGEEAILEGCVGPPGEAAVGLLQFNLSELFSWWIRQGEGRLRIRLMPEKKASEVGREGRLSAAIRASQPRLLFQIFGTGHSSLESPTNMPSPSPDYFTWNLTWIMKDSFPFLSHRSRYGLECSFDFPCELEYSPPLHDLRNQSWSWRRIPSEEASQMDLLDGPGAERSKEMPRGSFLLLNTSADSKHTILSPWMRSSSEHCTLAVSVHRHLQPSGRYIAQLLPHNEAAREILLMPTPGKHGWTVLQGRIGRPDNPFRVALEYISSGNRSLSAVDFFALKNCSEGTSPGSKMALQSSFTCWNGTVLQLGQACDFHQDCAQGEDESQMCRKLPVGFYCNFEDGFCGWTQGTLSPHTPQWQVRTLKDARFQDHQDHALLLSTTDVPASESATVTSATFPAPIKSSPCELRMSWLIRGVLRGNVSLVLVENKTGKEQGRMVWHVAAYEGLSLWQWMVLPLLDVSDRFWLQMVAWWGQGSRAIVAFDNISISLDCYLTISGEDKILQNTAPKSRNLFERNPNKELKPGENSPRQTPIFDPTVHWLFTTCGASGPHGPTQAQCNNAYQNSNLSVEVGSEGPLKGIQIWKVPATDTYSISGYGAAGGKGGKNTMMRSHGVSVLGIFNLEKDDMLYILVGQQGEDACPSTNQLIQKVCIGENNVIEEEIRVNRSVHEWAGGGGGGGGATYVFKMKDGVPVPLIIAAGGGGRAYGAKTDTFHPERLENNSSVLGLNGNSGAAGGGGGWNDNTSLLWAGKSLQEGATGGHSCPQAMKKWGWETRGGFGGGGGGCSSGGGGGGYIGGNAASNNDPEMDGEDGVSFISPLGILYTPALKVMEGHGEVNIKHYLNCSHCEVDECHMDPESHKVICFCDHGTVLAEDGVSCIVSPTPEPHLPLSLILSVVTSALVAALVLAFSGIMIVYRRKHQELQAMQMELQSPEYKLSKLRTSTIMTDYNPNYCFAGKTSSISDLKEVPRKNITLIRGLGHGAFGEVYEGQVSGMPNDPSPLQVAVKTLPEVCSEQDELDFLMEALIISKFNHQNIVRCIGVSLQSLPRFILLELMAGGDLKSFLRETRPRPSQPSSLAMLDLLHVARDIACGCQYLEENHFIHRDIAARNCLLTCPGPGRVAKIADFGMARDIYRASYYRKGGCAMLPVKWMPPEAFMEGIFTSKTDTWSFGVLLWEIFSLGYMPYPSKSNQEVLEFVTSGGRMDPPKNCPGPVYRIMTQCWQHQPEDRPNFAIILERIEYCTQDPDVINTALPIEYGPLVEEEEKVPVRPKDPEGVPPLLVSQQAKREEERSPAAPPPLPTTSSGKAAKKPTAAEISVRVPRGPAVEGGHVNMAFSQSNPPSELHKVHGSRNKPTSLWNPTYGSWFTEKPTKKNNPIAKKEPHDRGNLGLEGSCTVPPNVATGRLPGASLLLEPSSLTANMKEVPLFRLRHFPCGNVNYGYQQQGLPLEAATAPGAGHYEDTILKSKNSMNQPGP
pIC50: −log10 of the molar value.

[
  {
    "substance-smiles": "COc1ccc2nc(-c3cc4ccc(N5CCOCC5)cc4oc3=O)sc2c1",
    "pIC50": 6.52
  }
]

====

tested on: MCF7-DOX; assay: Antiproliferative activity against human MCF7-DOX cells assessed as reduction in cell viability by SRB assay; type: functional, cell-based
pIC50: −log10 of the molar value.

[
  {
    "substance-smiles": "Cc1cc(=O)oc2cc(OCCOCCN3C(=O)/C(=N/O)c4cc(F)ccc43)ccc12",
    "pIC50": 4.84
  }
]

====

system: SK-OV-3; experiment: Anticancer activity against human SK-OV-3 cells assessed as reduction in cell viability incubated for 24 hrs by MTT assay; assay type: functional, cell-based; conditions: SK-OV-3, 24 h
pIC50: −log10 of the molar value.

[
  {
    "substance-smiles": "Cc1cc(=O)oc2cc(OCCOCCOCCOCN3C(=O)/C(=N/O)c4cc(F)ccc43)ccc12",
    "pIC50": 4.62
  }
]

====

system: SW-620; assay: Anticancer activity against human SW620 cells assessed as reduction in cell viability measured after 72 hrs by MTT assay; assay type: functional, cell-based; conditions: SW-620, 72 h
pIC50: −log10 of the molar value.
value-type: pIC50

[
  {
    "substance-smiles": "O=C(OCC#CCOc1no[n+]([O-])c1S(=O)(=O)c1ccccc1)c1cc2ccccc2oc1=O",
    "endpoint-value": 5.73
  }
]

====

tested on: MCF7; experiment: Anticancer activity against human MCF7 cells assessed as reduction in cell viability measured after 72 hrs by MTT assay; type: functional, cell-based; details: MCF7, 72 h

[
  {
    "substance-smiles": "O=C(NCCOCc1no[n+]([O-])c1S(=O)(=O)c1ccccc1)c1cc2ccccc2oc1=O",
    "reading-unit": "µM",
    "IC50": 0.61
  }
]

====

tested on: MDA-MB-231; test: Antiproliferative activity against human MDA-MB-231 cells assessed as reduction in cell proliferation incubated for 72 hrs by CellTiter-Glo reagent based assay; type: functional; details: MDA-MB-231, 72 h
value-type: IC50 (µM)

[
  {
    "substance-smiles": "C/C(=N\\c1ccc(S(N)(=O)=O)cc1)c1cc2ccccc2oc1=O",
    "reading-unit": "µM",
    "endpoint-value": 7.78
  }
]
